Biological target: α2β2γ2 GABAA receptor (Homo sapiens, UniProt P18507+P47869)
Assay: Radioligand binding (McKernan and Atack), α2β2γ2
Details: Table 3; αxβ2γ2; means of two determinations; read-out: Binding affinity α2
Protocol: Transfected HEK cells (beta2 gamma2 and desired alpha subtype) were harvested into phosphate-buffered saline, centrifuged at 3,000 g, and stored at −70°C until required. […] Following incubation for 1 hour at 4°C, assays were terminated by filtration through GF/B filters, washed with 10 mL ice cold buffer, dried, and then counted using a liquid scintillation counter. […]
pKi values by entry
Reminder that pKi is minus the log10 of a molar concentration.

The recorded pKi for C#Cc1ccc2c(c1)C(c1ccccc1)=N[C@@H](C)c1c(C(=O)OCC)ncn1-2 [SH-053-S-CH3, (16)] is 5.90

Documented pKi of C#Cc1ccc2c(c1)C(c1ccccc1)=N[C@H](C)c1c(C(=O)OCC)ncn1-2 [SH-053-R-CH3, (15)] : 5.62

---

biological target: α6β3γ2 GABAA/BzR (Homo sapiens, UniProt P18507+Q16445); assay: Competition binding to HEK cell membranes, α6β3γ2; design: expressed in transfected cells; details: read-out: Ki α6
READOUT LABEL: Ki (nM)
Numeric only. Scale: nM

Memo: S=C=Nc1ccc2[nH]c3cnc(N=C=S)cc3c2c1 [EDC-I-093] , reported Ki: 5000

Form: compound = CCCC(=O)c1cc2c(cn1)[nH]c1ccccc12 [MSA-IV-35] ; Ki = 3000

compound CC[C@H](C)OC(=O)c1ncn2c1[C@@H]1CCCN1C(=O)c1cc(F)ccc1-2 [CM-B44 (ss)] , Ki observed: 485

COc1ccc2c(c1)C(=O)N1CCCC1c1c(C(=O)OCC(C)C)ncn1-2 (stereo not shown) [CM-E11] has a reported Ki of 750

get_value(item= CCOC(=O)c1ncc2[nH]c3cc(OC)c(OC)cc3c2c1CC [MSR-I-032] , readout=Ki) returns 74.9

Recorded Ki (compound c1ccc2c(c1)[nH]c1cnc3c4cccnc4[nH]c3c12 [LJD-III-15E] ): 1000

Reported Ki for CC(C)(C)OC(=O)c1ncn2c1[C@@H]1CCCN1C(=O)c1cc(-c3ccco3)ccc1-2 [JYI-06] was 5000

The reported Ki of the compound COc1ccc2c(c1)C(=O)N1CCCC1c1c(C(=O)OC(C)C)ncn1-2 (stereo not shown) [CM-E09b] was 69

Query O=C(OCC(F)(F)F)c1ncn2c1[C@@H]1CCCN1C(=O)c1ccccc1-2 [JYI-14] yields Ki of 565

Value of measured Ki for the entry c1ccc2c(c1)[nH]c1c2ncc2[nH]c3ccccc3c21 [MLT-I-70] : 1000

The measured Ki associated with Cc1nnc2n1-c1ccc(Br)cc1C(c1ccccc1F)=NC2 [JYI-64 (C17H12N4FBr)] reads 5000

---

Below is a list of entries, each paired with its recorded pKi value.
target: α3β3γ2 GABAA/BzR (Homo sapiens, UniProt P18507+P34903); test: Competition binding to HEK cell membranes, α3β3γ2; parameters: expressed in transfected cells; conditions: Ki α3
API: returns pKi as number; meaning -log10 of concentration in mol/L.

{"COMPOUND": "Cc1nnc2n1-c1ccc(Cl)cc1C(c1ccccc1)=NC2 [alprazolam, reference compound]", "TESTED ON": "α3β3γ2 GABAA/BzR (Homo sapiens, UniProt P18507+P34903)", "READOUT LABEL": "pKi", "MEASUREMENT": 8.84}
{"COMPOUND": "CC(C)(C)OC(=O)c1cc2c(cn1)[nH]c1ccc(-c3ccccc3)cc12", "TESTED ON": "α3β3γ2 GABAA/BzR (Homo sapiens, UniProt P18507+P34903)", "READOUT LABEL": "pKi", "MEASUREMENT": 7.35}
{"COMPOUND": "C#Cc1ccc2c(c1)C(=O)N1CCC1c1c(-c3ocnc3C(=O)OCC)ncn1-2 (centres unmarked)", "TESTED ON": "α3β3γ2 GABAA/BzR (Homo sapiens, UniProt P18507+P34903)", "READOUT LABEL": "pKi", "MEASUREMENT": 6.30}
{"COMPOUND": "O=C1C2C=Nc3ccccc3C2=NN1c1ccccc1 (centres unmarked) [QH-II-090 (CGS-8216), reference compound]", "TESTED ON": "α3β3γ2 GABAA/BzR (Homo sapiens, UniProt P18507+P34903)", "READOUT LABEL": "pKi", "MEASUREMENT": 9.92}
{"COMPOUND": "COCc1c(C(=O)OC(C)C)ncc2[nH]c3ccc(OCc4ccccc4)cc3c12 [ABECARNIL, reference compound]", "TESTED ON": "α3β3γ2 GABAA/BzR (Homo sapiens, UniProt P18507+P34903)", "READOUT LABEL": "pKi", "MEASUREMENT": 8.12}
{"COMPOUND": "C[Si](C)(C)C#Cc1ccc2[nH]c3cnc(C(=O)OCC(F)(F)F)cc3c2c1", "TESTED ON": "α3β3γ2 GABAA/BzR (Homo sapiens, UniProt P18507+P34903)", "READOUT LABEL": "pKi", "MEASUREMENT": 7.18}
{"COMPOUND": "CCOC(=O)c1ncc2[nH]c3ccc(OCc4ccccc4)cc3c2c1COC [ZK 93423, reference compound]", "TESTED ON": "α3β3γ2 GABAA/BzR (Homo sapiens, UniProt P18507+P34903)", "READOUT LABEL": "pKi", "MEASUREMENT": 8.22}
{"COMPOUND": "CC(C)(C)OC(=O)c1cc2c(cn1)[nH]c1ccccc12", "TESTED ON": "α3β3γ2 GABAA/BzR (Homo sapiens, UniProt P18507+P34903)", "READOUT LABEL": "pKi", "MEASUREMENT": 10.46}
{"COMPOUND": "C#Cc1ccc2c(c1)C(c1ccccc1)=NCc1c(C(=O)OCCCOC(=O)c3ncn4c3CN=C(c3ccccc3)c3cc(C#C)ccc3-4)ncn1-2", "TESTED ON": "α3β3γ2 GABAA/BzR (Homo sapiens, UniProt P18507+P34903)", "READOUT LABEL": "pKi", "MEASUREMENT": 6.57}
{"COMPOUND": "CCOC(=O)c1cc2c(cn1)[nH]c1ccc(C#C[Si](C)(C)C)cc12", "TESTED ON": "α3β3γ2 GABAA/BzR (Homo sapiens, UniProt P18507+P34903)", "READOUT LABEL": "pKi", "MEASUREMENT": 8.25}

"O=C(OCC(F)(F)F)c1cc2c(cn1)[nH]c1ccc(I)cc12" has a reported pKi of 7.33

Measured pKi of "CC(C)(C)OC(=O)c1cc2c(cn1)[nH]c1ccc(F)cc12" : 7.83

// field: pKi; key: "C#Cc1ccc2[nH]c3cnc(C(=O)OC(C)(C)C)cc3c2c1" ; value = 8.79

// field: pKi; key: "C#Cc1ccc2c(c1)C(=O)N(C)Cc1c(C(=O)OCCCOC(=O)c3ncn4c3CN(C)C(=O)c3cc(C#C)ccc3-4)ncn1-2" ; value = 6.07

For reference, reported pKi for CC(C)(C)OC(=O)c1ncn2c1[C@@H]1CCCN1C(=O)c1c(Br)cccc1-2 [BRETAZENIL, reference compound] stands at 9.70

Just so you know, measured pKi for "CCCOc1ccc2[nH]c3cnc(C(=O)OCC)c(COC)c3c2c1" came out at 8.66

Data point: "C#Cc1ccc2c(c1)C(=O)N(C)Cc1c(C(=O)OCCCCCOC(=O)c3ncn4c3CN(C)C(=O)c3cc(C#C)ccc3-4)ncn1-2" ; pKi = 5.57
